# experiment_description: Apparent permeability from basolateral to apical side in MDCK cells
# Type: ADME, cell-based, Canis lupus familiaris
# setup_conditions: dog
quantity: Papp B→A (×10⁻⁶ cm/s)
Your answer should be a plain number; it is taken to be in ×10⁻⁶ cm/s.

1) CC(=O)N1CCN(c2ccc(CN3C[C@H](C)OC[C@H](c4ccccc4)S3(=O)=O)c(F)c2)CC1 = 15

# context switch: different compound, same Papp B→A
Req: // Papp B→A lookup, key: CC(=O)N1CCN(c2ccc(CN3[C@@H](C)CC[C@H](c4ccccc4)S3(=O)=O)c(F)c2)CC1
Resp: 32

---

# experiment_description: Protein binding in mouse plasma by equilibrium dialysis
# Assay type: ADME, cell-free
# setup_conditions: read-out: PPB (converted)
quantity: fraction unbound
Could you keep your reply to the number by itself?

Req: // fraction unbound lookup, key: CC(=O)N1CCN(c2ccc(CN3[C@@H](C)CC[C@H](c4ccccc4)S3(=O)=O)c(F)c2)CC1
Resp: 0.04

Req: Try this compound next: CC(=O)N1CCN(c2ccc(CN3C[C@H](C)OC[C@H](c4ccccc4)S3(=O)=O)c(F)c2)CC1
Resp: 0.06

---

# experiment_description: Clearance in rat liver microsomes relative to liver blood flow
# Format: ADME, Microsome
# setup_conditions: read-out: CLH
quantity: hepatic extraction ratio

Req: // hepatic extraction ratio lookup, key: CC(=O)N1CCN(c2ccc(CN3C[C@H](C)OC[C@H](c4ccccc4)S3(=O)=O)c(F)c2)CC1
Resp: > 0.7

---

# experimental_system: Nuclear receptor ROR-gamma (Homo sapiens, UniProt P51449)
# Sequence (P51449 whole entry, the tested form may be a part): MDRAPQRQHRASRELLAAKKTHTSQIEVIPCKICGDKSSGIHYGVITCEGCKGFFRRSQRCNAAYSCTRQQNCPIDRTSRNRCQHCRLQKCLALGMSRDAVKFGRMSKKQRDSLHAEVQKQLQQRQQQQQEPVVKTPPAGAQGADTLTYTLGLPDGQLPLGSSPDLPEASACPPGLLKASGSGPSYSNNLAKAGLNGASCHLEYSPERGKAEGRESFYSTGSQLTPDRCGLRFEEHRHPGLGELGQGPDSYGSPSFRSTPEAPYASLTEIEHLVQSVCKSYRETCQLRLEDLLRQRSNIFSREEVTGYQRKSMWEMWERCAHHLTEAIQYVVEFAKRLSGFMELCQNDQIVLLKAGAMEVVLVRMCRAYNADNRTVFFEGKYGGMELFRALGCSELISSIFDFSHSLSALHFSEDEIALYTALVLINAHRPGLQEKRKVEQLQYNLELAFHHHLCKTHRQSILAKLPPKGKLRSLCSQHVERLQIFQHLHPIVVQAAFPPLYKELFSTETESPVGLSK
# experiment_description: Inverse agonist activity at GAL4-fused human RORc expressed in HEK293 cells assessed as […] of basal transcriptional activity by dual-glo luciferase reporter gene assay
# Format: cell-based
quantity: EC50 (nM)
Your answer should be a plain number; it is taken to be in nM.

Past entries and their recorded results:
1) CC(=O)N1CCN(c2ccc(CN3[C@@H](C)COC[C@H](c4ccccc4)S3(=O)=O)c(F)c2)CC1 = 64
2) CC(=O)N1CCN(c2ccc(CN3[C@@H](C)CC[C@H](c4ccccc4)S3(=O)=O)c(F)c2)CC1 = 47
3) CC(=O)N1CCN(c2ccc(CN3C[C@H](C)OC[C@H](c4ccccc4)S3(=O)=O)c(F)c2)CC1 = 22

# context switch: different compound, same EC50
Req: // EC50 lookup, key: CC(=O)N1CCN(c2ccc(CN3CCCC[C@H](c4ccccc4)S3(=O)=O)c(F)c2)CC1
Resp: 25

---

# Tested on: PBMC
# experiment_description: Inhibition of IL-17AA production in anti-CD3 and anti-CD28 stimulated human PBMC measured […] by Sandwich ELISA relative to control
# Format: functional
# Imax values compiled below
Your answer should be a plain number; it is taken to be in %.

Past entries and their recorded results:
1) CC(=O)N1CCN(c2ccc(CN3CCCC[C@H](c4ccccc4)S3(=O)=O)c(F)c2)CC1 = 80
2) CC(=O)N1CCN(c2ccc(CN3C[C@H](C)OC[C@H](c4ccccc4)S3(=O)=O)c(F)c2)CC1 = 67
3) CC(=O)N1CCN(c2ccc(CN3[C@@H](C)CC[C@H](c4ccccc4)S3(=O)=O)c(F)c2)CC1 = 82
4) CC(=O)N1CCN(c2ccc(CN3[C@@H](C)COC[C@H](c4ccccc4)S3(=O)=O)c(F)c2)CC1 = 80

# context switch: different compound, same Imax
Req: // Imax lookup, key: CC(=O)N1CCN(c2ccc(CN3CCOC[C@H](c4ccccc4)S3(=O)=O)c(F)c2)CC1
Resp: 59
